Experiment: in vivo
Conditions: Artemia salina (brine shrimp), in vivo, LC50 (brine shrimp lethality), Artemia salina
// reported LC50 per item
metric: LC50

{"compound": "Cc1cc(O)cc(Oc2cc(C)cc(OC(=O)c3ccccc3)c2)c1 [compound 10, 3-O-benzoyl-diorcinol]", "metric": "LC50", "readout_value": "> 150 µM"}
{"compound": "COC(=O)c1c(C)cc(Oc2cc(C)cc(O)c2)cc1O [compound 3, 4-Methoxyacyl-diorcinol]", "metric": "LC50", "readout_value": "≥ 34.7 µM"}
{"compound": "Cc1cc(O)cc(Oc2cc(C)cc(OC(=O)c3ccc(Br)cc3)c2)c1 [compound 15, 3-O-p-Bromobenzoyl-diorcinol]", "metric": "LC50", "readout_value": "> 121 µM"}
